- target.entity: P2Y purinoceptor 12 (Homo sapiens, UniProt Q9H244)
- Sequence (Q9H244 whole entry): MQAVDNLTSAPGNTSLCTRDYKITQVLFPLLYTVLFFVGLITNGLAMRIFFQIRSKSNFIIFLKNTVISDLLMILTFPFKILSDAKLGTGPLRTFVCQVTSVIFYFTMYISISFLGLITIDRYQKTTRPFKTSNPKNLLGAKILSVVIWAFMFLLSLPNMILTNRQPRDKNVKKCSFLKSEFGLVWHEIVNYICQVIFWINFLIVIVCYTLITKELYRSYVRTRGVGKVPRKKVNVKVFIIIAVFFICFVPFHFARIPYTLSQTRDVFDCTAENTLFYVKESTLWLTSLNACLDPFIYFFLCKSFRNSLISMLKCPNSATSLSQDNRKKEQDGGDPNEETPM
- run.description: Binding affinity at human recombinant P2Y12 receptor expressed in CHO cells by radioligand binding assay
measure: Ki (nM)
Give bare numbers, in nM.

Below, 3 compounds whose answers are already recorded.
{"columns": ["item.smiles", "unit", "result.number"],
 "data": [
  ["CCCCCOC(=O)N1CCN(C(=O)[C@H](CCC(=O)O)NC(=O)c2cc(OCCCN3CCOCC3)nc(-c3ccccc3)n2)CC1", "nM", 2.8],
  ["CCCCCOC(=O)N1CCN(C(=O)[C@H](CCC(=O)O)NC(=O)c2cc(N3CCN(C(C)=O)CC3)nc(-c3ccccc3)n2)CC1", "nM", 3.7],
  ["CCCCCOC(=O)N1CCN(C(=O)[C@H](CCC(=O)O)NC(=O)c2cc(N3CCC(COCCOC)CC3)nc(-c3ccccc3)n2)CC1", "nM", 4.3]
]}

Alright, here's another compound for you.
response.value for "CCCCCOC(=O)N1CCN(C(=O)[C@H](CCC(=O)O)NC(=O)c2cc(N3CCC(CC(=O)NCC)CC3)nc(-c3ccccc3)n2)CC1" (field: Ki) = 0.67

====

- run.description: Clearance in Sprague-Dawley rat at 2 mg/kg, iv and 5 mg/kg, po
- Assay type: ADME, organism-based
- experimental.parameters: in vivo
measure: clearance (mL/min/kg)
Answers are plain numbers, in mL/min/kg.

Below, 3 molecules whose answers are already recorded.
{"columns": ["item.smiles", "unit", "result.number"],
 "data": [
  ["CCCCCOC(=O)N1CCN(C(=O)[C@H](CCC(=O)O)NC(=O)c2nc(-c3ccccc3)cc(N3CCC(CN)CC3)n2)CC1", "mL/min/kg", 16],
  ["CCCCCOC(=O)N1CCN(C(=O)[C@H](CCC(=O)O)NC(=O)c2cc(N3CCC(OCCO)CC3)nc(-c3ccccc3)n2)CC1", "mL/min/kg", 18],
  ["CCCCCOC(=O)N1CCN(C(=O)[C@H](CCC(=O)O)NC(=O)c2nc(-c3ccccc3)cc(N3CCC(COC)CC3)n2)CC1", "mL/min/kg", 6]
]}

response.value for "CCCCCOC(=O)N1CCN(C(=O)[C@H](CCC(=O)O)NC(=O)c2cc(N3CCC(C(N)=O)CC3)nc(-c3ccccc3)n2)CC1" (field: clearance) = 68

====

- target.entity: P2Y purinoceptor 12 (Homo sapiens, UniProt Q9H244)
- run.description: Ratio of compound IC50 to AZD-6140 IC50 for P2Y12 receptor in human platelet rich plasma assessed as inhibition of ADP-induced platelet aggregation by light transmission aggregometry
measure: Ratio IC50
Numbers only.

{"columns": ["item.smiles", "Ratio IC50"],
 "data": [
  ["CCCCCOC(=O)N1CCN(C(=O)[C@H](CCC(=O)O)NC(=O)c2nc(-c3ccccc3)cc(N3CCN(C(C)=O)CC3)n2)CC1", 8.9]
]}

Required: Ratio IC50, one value per molecule below.
1. CCCCCOC(=O)N1CCN(C(=O)[C@H](CCC(=O)O)NC(=O)c2cc(N3CCC(OCCOC)CC3)nc(-c3ccccc3)n2)CC1
2. CCCCCOC(=O)N1CCN(C(=O)[C@H](CCC(=O)O)NC(=O)c2cc(N3CCC(CN4CCCC4)CC3)nc(-c3ccccc3)n2)CC1
3. CCCCCOC(=O)N1CCN(C(=O)[C@H](CCC(=O)O)NC(=O)c2nc(-c3ccccc3)cc(N3CCC(CNC)CC3)n2)CC1
4. CCCCCOC(=O)N1CCN(C(=O)[C@H](CCC(=O)O)NC(=O)c2cc(N3CCC(CCN(C)C)CC3)nc(-c3ccccc3)n2)CC1
5. CCCCCOC(=O)N1CCN(C(=O)[C@H](CCC(=O)O)NC(=O)c2cc(N3CCC(N4CCOCC4)CC3)nc(-c3ccccc3)n2)CC1
6. CCCCCOC(=O)N1CCN(C(=O)[C@H](CCC(=O)O)NC(=O)c2nc(OCC3CCN(C)CC3)cc(-c3ccccc3)n2)CC1

1. 0.8
2. 0.7
3. 1
4. 0.4
5. 0.7
6. 4.4

====

I'd be grateful if you could share measured Ratio IC50 for these entries.
- target.entity: P2Y purinoceptor 12 (Homo sapiens)
- run.description: Ratio of compound IC50 to thienopyrimidine IC50 for P2Y12 receptor in human platelet rich plasma assessed as inhibition of ADP-induced platelet aggregation by light transmission aggregometry
Answers are plain numbers.

Below, 3 molecules whose answers are already recorded.
{"columns": ["item.smiles", "measure", "result.number"],
 "data": [
  ["CCCCCOC(=O)N1CCN(C(=O)[C@H](CCC(=O)O)NC(=O)c2cc(OCCOC)nc(-c3ccccc3)n2)CC1", "Ratio IC50", 1.2],
  ["CCCCCOC(=O)N1CCN(C(=O)[C@H](CCC(=O)O)NC(=O)c2cc(N3CCN(C(=O)N(C)C)CC3)nc(-c3ccccc3)n2)CC1", "Ratio IC50", 0.3],
  ["CCCCCOC(=O)N1CCN(C(=O)[C@H](CCC(=O)O)NC(=O)c2cc(N3CCC(CN4CCCC4)CC3)nc(-c3ccccc3)n2)CC1", "Ratio IC50", 0.1]
]}

Alright, here's another molecule for you.
response.value for "CCCCCOC(=O)N1CCN(C(=O)[C@H](CCC(=O)O)NC(=O)c2nc(-c3ccccc3)cc(N3CCC(CNC)CC3)n2)CC1" (field: Ratio IC50) = 0.4

====

- target.entity: P2Y purinoceptor 12 (Homo sapiens)
- run.description: Ratio of compound IC50 to AZD-6140 IC50 for P2Y12 receptor in human platelet rich plasma assessed as inhibition of ADP-induced platelet aggregation by light transmission aggregometry
I'd be grateful if you could share measured Ratio IC50 for these entries.
Numbers only.

Below, 5 molecules whose answers are already recorded.
{"columns": ["item.smiles", "Ratio IC50"],
 "data": [
  ["CCCCOC(=O)N1CCN(C(=O)[C@H](CCC(=O)O)NC(=O)c2cc(N3CCC(C(=O)NCC)CC3)nc(-c3ccccc3)n2)CC1", 0.6],
  ["CCCCOC(=O)N1CCN(C(=O)[C@H](CCC(=O)O)NC(=O)c2cc(N3CCC(N4CCCC4)CC3)nc(-c3ccccc3)n2)CC1", 0.8],
  ["CCCCCOC(=O)N1CCN(C(=O)[C@H](CCC(=O)O)NC(=O)c2nc(OCCCN3CCOCC3)cc(-c3ccccc3)n2)CC1", 6.6],
  ["CCCCCOC(=O)N1CCN(C(=O)[C@H](CCC(=O)O)NC(=O)c2cc(N3CCC(CN4CCCC4=O)CC3)nc(-c3ccccc3)n2)CC1", 2],
  ["CCCCCOC(=O)N1CCN(C(=O)[C@H](CCC(=O)O)NC(=O)c2cc(N3CCN(CC(=O)N4CCCC4)CC3)nc(-c3ccccc3)n2)CC1", 1.5]
]}

Required: Ratio IC50, one value per molecule below.
1. CCCCCOC(=O)N1CCN(C(=O)[C@H](CCC(=O)O)NC(=O)c2cc(N3CCN(C(N)=O)CC3)nc(-c3ccccc3)n2)CC1
2. CCCCCOC(=O)N1CCN(C(=O)[C@H](CCC(=O)O)NC(=O)c2cc(N3CCC(OC)CC3)nc(-c3ccccc3)n2)CC1

1: 0.8; 2: 1.6

====

- target.entity: P2Y purinoceptor 12 (Homo sapiens, UniProt Q9H244)
- run.description: Ratio of compound IC50 to AZD-6140 IC50 for P2Y12 receptor in human platelet rich plasma assessed as inhibition of ADP-induced platelet aggregation by light transmission aggregometry
I'd be grateful if you could share measured Ratio IC50 for these entries.
One number for each entry.

Below, 3 compounds whose answers are already recorded.
{"columns": ["compound", "measure", "result.number"],
 "data": [
  ["CCCCCOC(=O)N1CCN(C(=O)[C@H](CCC(=O)O)NC(=O)c2cc(N3CCC(CN)CC3)nc(-c3ccccc3)n2)CC1", "Ratio IC50", 0.6],
  ["CCCCCOC(=O)N1CCN(C(=O)[C@H](CCC(=O)O)NC(=O)c2nc(-c3ccccc3)cc(N3CCC(C(N)=O)CC3)n2)CC1", "Ratio IC50", 1.9],
  ["CCCCCOC(=O)N1CCN(C(=O)[C@H](CCC(=O)O)NC(=O)c2cc(N3CCC(CC(=O)N4CCCC4)CC3)nc(-c3ccccc3)n2)CC1", "Ratio IC50", 2]
]}

Required: Ratio IC50, one value per compound below.
1. CCCCOC(=O)N1CCN(C(=O)[C@H](CCC(=O)O)NC(=O)c2cc(N3CCC(C(=O)N4CCCC4)CC3)nc(-c3ccccc3)n2)CC1
2. CCCCCOC(=O)N1CCN(C(=O)[C@H](CCC(=O)O)NC(=O)c2cc(N3CC(O)C3)nc(-c3ccccc3)n2)CC1
3. CCCCCOC(=O)N1CCN(C(=O)[C@H](CCC(=O)O)NC(=O)c2nc(OCC3CCNCC3)cc(-c3ccccc3)n2)CC1
4. CCCCCOC(=O)N1CCN(C(=O)[C@H](CCC(=O)O)NC(=O)c2cc(N3CCC(C(=O)N(CC)CC)CC3)nc(-c3ccccc3)n2)CC1
5. CCCCOC(=O)N1CCN(C(=O)[C@H](CCC(=O)O)NC(=O)c2cc(OCC3CCNCC3)nc(-c3ccccc3)n2)CC1
6. CCCCCOC(=O)N1CCN(C(=O)[C@H](CCC(=O)O)NC(=O)c2cc(OCCN(CC)CC)nc(-c3ccccc3)n2)CC1

0.4
4.6
8.5
0.6
1
17

Required: Ratio IC50, one value per compound below.
1. CCCCCOC(=O)N1CCN(C(=O)[C@H](CCC(=O)O)NC(=O)c2nc(-c3ccccc3)cc(N3CCC(N)CC3)n2)CC1
2. CCCCOC(=O)N1CCN(C(=O)[C@H](CCC(=O)O)NC(=O)c2cc(OCC3CCCO3)nc(-c3ccccc3)n2)CC1 (stereo not given in full)
3. CCCCCOC(=O)N1CCN(C(=O)[C@H](CCC(=O)O)NC(=O)c2cc(N3CCC(CCOC)CC3)nc(-c3ccccc3)n2)CC1

1: 3.1; 2: 3.8; 3: 5.4
